- TEST SETTINGS: in isopropanol, 318.15 K
MEASURED QUANTITY: solubility (mole fraction)

get_value(item= C=CC(=O)NC(C)(C)CS(=O)(=O)O , readout=solubility (mole fraction)) returns 0.00373

* * *

- TEST SETTINGS: in ethyl acetate, 308.15 K
MEASURED QUANTITY: solubility (mole fraction)
Give a plain numeric answer without units written out.

get_value(item= C=CC(=O)NC(C)(C)CS(=O)(=O)O , readout=solubility (mole fraction)) returns 0.00431

* * *

- TEST SETTINGS: in ethanol, 328.15 K
MEASURED QUANTITY: solubility (mole fraction)
Give a plain numeric answer without units written out.

get_value(item= C=CC(=O)NC(C)(C)CS(=O)(=O)O , readout=solubility (mole fraction)) returns 0.0264

These data points were gathered from BigSolDB 2.1.
